// data source = patent US11453711B2

# assay-text: Pharmacokinetic measurement in mouse, single sc dose 30 nmol/kg, plasma ELISA
# setup-conditions: single sc dose 30 nmol/kg
measured-attribute: Tmax (h)

MLC007: fusion polypeptide SEQ ID NO: 254 conjugated with Moiety A at 1K of Linker (conjugate, Moiety A conjugated at linker K1) HGEGTFTSDVSSYLEEQAAREFIAWLVRGGGKQEPGQEPGQEPGQEPGQEPGQEPGQEPGQEPGAQPGAQPARQGDHCPLGPGRCCRLHTVRASLEDLGWADWVLSPREVQVTMCIGACPSQFRAANLHAQIKTSLHRLRPDTVPAPCCVPASYNPMVLIQRTDTGVSLQTYDDLLARDCHCI :: 0.5
MLC017: fusion polypeptide SEQ ID NO: 264 conjugated with Moiety A at 55K of Linker (conjugate, Moiety A conjugated at linker K55) HGEGTFTSDVSSYLEEQAAREFIAWLVRGGGGQEPGAQPGQEPGAQPGQEPGAQPGQEPGAQPGQEPGAQPGQEPGAQPGAQPGAKPGAQPGAQPGAQPGAQPGAQPGAQPARQGDHCPLGPGRCCRLHTVRASLEDLGWADWVLSPREVQVTMCIGACPSQFRAANLHAQIKTSLHRLRPDTVPAPCCVPASYNPMVLIQRTDTGVSLQTYDDLLARDCHCI :: 7.3
